Data provenance: patent US9260429B2

Provide the reported inhibition at 1 µM of each item.
biological target: human recombinant serotonin (5-Hydroxytryptamine) 5-HT2A receptor (Homo sapiens, UniProt P28223); construct: expressed in transfected cells; host or cells: CHO-K1 cells; assay: Serotonin 5-HT2A radioligand binding ([3H]Ketanserin); settings: 1 h; read-out: Percent Inhibition of ligand binding Serotonin (1 μM ligand concentration) 5-HT2A
Sequence (P28223 whole entry): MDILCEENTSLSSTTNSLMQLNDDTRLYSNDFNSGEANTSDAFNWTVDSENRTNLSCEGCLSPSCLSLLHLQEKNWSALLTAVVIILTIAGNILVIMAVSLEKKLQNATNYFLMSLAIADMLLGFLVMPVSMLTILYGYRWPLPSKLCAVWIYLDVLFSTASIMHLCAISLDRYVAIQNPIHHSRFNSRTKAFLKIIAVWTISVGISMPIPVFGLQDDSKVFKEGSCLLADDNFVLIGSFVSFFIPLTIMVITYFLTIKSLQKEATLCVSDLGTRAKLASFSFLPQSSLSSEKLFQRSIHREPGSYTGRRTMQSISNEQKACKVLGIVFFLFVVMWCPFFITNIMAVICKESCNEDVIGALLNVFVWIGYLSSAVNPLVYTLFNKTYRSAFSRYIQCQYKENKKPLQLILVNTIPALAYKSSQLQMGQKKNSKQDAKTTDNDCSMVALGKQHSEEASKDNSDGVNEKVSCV
State the value with its unit after it.

Exam item: Entry Cc1ccc2c(c1)c1c(n2C(=O)Cc2ccc(Cl)cc2)C(c2ccccc2)N(C)CC1 (stereo not shown) : reported inhibition at 1 µM = ?
Marked response: 98%

Exam item: Now consider C/C(=C\n1c2c(c3cc(C)ccc31)CCN(C)C2c1ccccc1)c1ccc(Cl)cc1 (stereo not shown) .
Marked response: 95%

Exam item: Consider next the compound CCC1c2c(c3cc(Cl)ccc3n2/C=C(\C)c2ccc(Cl)c(Cl)c2)CCN1C (stereo not shown) in the same way.
Marked response: 83%

Exam item: Entry C/C(=C\n1c2c(c3cc(Cl)ccc31)CCN(C)C2)c1ccc(Cl)cc1 please
Marked response: 98%

Exam item: Then this compound: Cc1ccc2c(c1)c1c(n2CC(O)c2ccccc2F)CN(C)CC1 (stereo not shown)
Marked response: 74%

Exam item: Another compound to check: CN1CCc2c(n(CC(=O)N(C)C3CCCCC3)c3ccc(Cl)cc23)C1
Marked response: -1%

Exam item: CN1CCc2c(n(CCCc3ccccc3)c3ccc(Cl)cc23)C1 , same question.
Marked response: 83%

Exam item: Same lookup for C/C(=C\n1c2c(c3cc(Cl)ccc31)CCN(C)C2)c1ccc(Cl)c(Cl)c1 , please.
Marked response: 93%

Exam item: One more compound: Cc1ccc(CCCn2c3c(c4cc(Cl)ccc42)CCN(C)C3)cn1
Marked response: 12%

Exam item: Would you kindly repeat that for CCC1c2c(c3cc(Cl)ccc3n2/C=C(\C)c2ccc(Cl)cc2)CCN1C (stereo not shown) ?
Marked response: 87%

Exam item: For CN1CCc2c(n(CC(O)c3ccccc3F)c3ccc(Cl)cc23)C1 (stereo not shown) then?
Marked response: 80%

Exam item: Try this compound too: C/C(=C\n1c2c(c3cc(Cl)ccc31)CCN(C)C2C)c1ccc(F)c(F)c1 (stereo not shown)
Marked response: 79%

Exam item: Field entry: COC(=O)Cn1c2c(c3cc(C)ccc31)CCN(C)C2
Marked response: 4%

Exam item: Repeat with Cc1ccc2c(c1)c1c(n2CC(=O)N2CCCCC2)CN(C)CC1
Marked response: 28%

Exam item: Same thing, different compound: CCC1c2c(c3cc(C)ccc3n2/C=C(\C)c2ccc(Cl)c(Cl)c2)CCN1C (stereo not shown)
Marked response: 83%

Exam item: And what about the compound Cc1ccc2c(c1)c1c(n2CC(C)(O)c2ccc(F)cc2)CN(C)CC1 (stereo not shown) ?
Marked response: 86%

###

target: human recombinant histamine H2 receptor (Homo sapiens, UniProt P25021); construct: expressed in transfected cells; host or cells: CHO-K1 cells; assay: Histamine H2 radioligand binding ([125I]Aminopotentidine); conditions: 1 μM; inhibition of specific [125I]Aminopotentidine binding; read-out: Binding data (Percentage Inhibition) Histamine Binding (1 μM) H2
Sequence (P25021 whole entry): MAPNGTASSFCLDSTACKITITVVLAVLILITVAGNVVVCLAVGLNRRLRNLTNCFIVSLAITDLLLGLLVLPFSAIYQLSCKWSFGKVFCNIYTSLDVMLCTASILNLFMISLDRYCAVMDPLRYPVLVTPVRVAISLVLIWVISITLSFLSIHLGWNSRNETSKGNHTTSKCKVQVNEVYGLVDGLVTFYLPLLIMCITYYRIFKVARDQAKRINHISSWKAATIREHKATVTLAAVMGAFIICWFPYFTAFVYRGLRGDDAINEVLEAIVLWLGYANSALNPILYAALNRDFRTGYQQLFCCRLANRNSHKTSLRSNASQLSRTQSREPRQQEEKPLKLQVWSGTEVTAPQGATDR
Parameter Measured: inhibition at 1 µM
Answer as a quantity: numeral, then unit.

Exam item: Find the recorded inhibition at 1 µM belonging to C/C(=C/n1c2c(c3cc(C)ccc31)CCN(C)C2C)c1ccc(Cl)cc1Cl (stereo not drawn) and report it.
Marked response: 50%

Exam item: Moving on to the next molecule: C/C(=C\n1c2c(c3cc(C)ccc31)CCN(C)C2C)c1ccc(Cl)cc1 (stereo not drawn)
Marked response: 82%

Exam item: Can you check CN1CCc2c(n(CC(=O)N3CCNCC3)c3ccc(Cl)cc23)C1 next?
Marked response: 2%

Exam item: What about Cc1ccc2c(c1)c1c(n2CCC2CCCCC2)CN(C)CC1 ?
Marked response: 71%

Exam item: And then CCC1c2c(c3cc(Cl)ccc3n2/C=C(\C)c2ccc(Cl)cc2)CCN1C (stereo not drawn) , what is it?
Marked response: 39%

Exam item: One more molecule: CN1CCc2c(n(CCC3CCCC3)c3ccc(Cl)cc23)C1
Marked response: 67%

Exam item: Also Cc1ccc(CCCn2c3c(c4cc(Cl)ccc42)CCN(C)C3)cn1 , if possible.
Marked response: 20%

Exam item: What do you get for C/C(=C\n1c2c(c3cc(C)ccc31)CCN(C)C2)c1ccc(F)cc1 ?
Marked response: 68%

Exam item: Request: C/C(=C\n1c2c(c3cc(Cl)ccc31)CCN(C)C2)c1ccc(F)cc1
Marked response: 64%
